System: Full length KDM2B (Homo sapiens (Human), UniProt Q8NHM5) | Read-out: pIC50
Sequence (Q8NHM5 whole entry): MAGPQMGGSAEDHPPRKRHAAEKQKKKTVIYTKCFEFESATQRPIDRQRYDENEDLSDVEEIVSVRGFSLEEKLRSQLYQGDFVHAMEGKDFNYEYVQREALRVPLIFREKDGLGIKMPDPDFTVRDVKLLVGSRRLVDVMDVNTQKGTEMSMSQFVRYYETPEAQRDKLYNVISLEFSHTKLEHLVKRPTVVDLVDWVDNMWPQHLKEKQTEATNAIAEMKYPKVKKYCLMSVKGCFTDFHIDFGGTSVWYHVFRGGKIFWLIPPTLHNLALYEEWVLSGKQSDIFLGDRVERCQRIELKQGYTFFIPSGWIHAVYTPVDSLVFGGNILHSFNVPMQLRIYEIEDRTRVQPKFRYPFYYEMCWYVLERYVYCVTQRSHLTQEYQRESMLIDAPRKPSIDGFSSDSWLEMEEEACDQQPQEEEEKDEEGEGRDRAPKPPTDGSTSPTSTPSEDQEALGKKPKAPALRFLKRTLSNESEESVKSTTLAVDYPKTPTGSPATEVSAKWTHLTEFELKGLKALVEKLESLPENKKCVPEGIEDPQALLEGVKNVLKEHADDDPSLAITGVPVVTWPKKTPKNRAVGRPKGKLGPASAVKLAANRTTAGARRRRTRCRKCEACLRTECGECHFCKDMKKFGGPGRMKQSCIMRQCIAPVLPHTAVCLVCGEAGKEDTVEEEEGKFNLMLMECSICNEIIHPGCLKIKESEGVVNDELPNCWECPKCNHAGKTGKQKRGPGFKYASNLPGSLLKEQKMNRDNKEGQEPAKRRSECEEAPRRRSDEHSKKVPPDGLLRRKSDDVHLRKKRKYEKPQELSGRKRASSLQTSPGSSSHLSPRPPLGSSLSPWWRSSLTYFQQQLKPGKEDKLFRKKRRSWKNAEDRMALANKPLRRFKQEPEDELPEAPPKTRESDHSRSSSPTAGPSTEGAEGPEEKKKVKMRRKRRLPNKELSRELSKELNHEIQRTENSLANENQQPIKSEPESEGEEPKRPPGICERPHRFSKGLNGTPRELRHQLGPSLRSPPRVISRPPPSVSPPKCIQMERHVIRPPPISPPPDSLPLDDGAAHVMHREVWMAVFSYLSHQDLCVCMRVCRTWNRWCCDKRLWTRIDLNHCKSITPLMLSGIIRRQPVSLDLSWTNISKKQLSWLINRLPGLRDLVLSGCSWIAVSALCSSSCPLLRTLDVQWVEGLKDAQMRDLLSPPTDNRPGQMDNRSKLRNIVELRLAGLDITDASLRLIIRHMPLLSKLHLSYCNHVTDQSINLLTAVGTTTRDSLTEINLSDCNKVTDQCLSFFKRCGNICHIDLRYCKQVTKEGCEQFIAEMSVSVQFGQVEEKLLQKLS
Structures can show the parent of a compound that is named as a salt.
Scale note: pIC50 = -log10(concentration in M).

INSERT INTO measurements (compound, measuredendpoint, readoutnumber) VALUES
  ('COc1ccc(C(=O)[C@@H]2CCCN(CC3CC3)C2)cc1 (stereo in doubt) [Example 110b]', 'pIC50', 5.28);

The compound COc1ccc2cc(C(=O)C3CCCN(CC4CC4)C3)ccc2c1CO (stereo not drawn) [Example 188, hydrochloride] , tested on Full length KDM2B (Homo sapiens (Human), UniProt Q8NHM5), showed pIC50 of 6.88

Test item CCCN1CCCC(C(=O)c2ccc3cccc(C)c3c2)C1 (stereo not drawn) ; Full length KDM2B (Homo sapiens (Human), UniProt Q8NHM5); reported pIC50 was 6.90

// assay Full length KDM2B (Homo sapiens (Human), UniProt Q8NHM5), entry CCCN1CCCC(C(=O)c2ccc(OC)cc2)C1 (stereo not drawn) , pIC50 value = 6.03

Measured pIC50 for this entry CCCN1CCCC(C(=O)c2ccc3cc(OC)ccc3c2)C1 (stereo not drawn) on Full length KDM2B (Homo sapiens (Human), UniProt Q8NHM5): 6.79

The measured pIC50 that C[C@@H]1CCN(CC2CC2)C[C@H]1C(=O)c1ccc2cc(C#N)ccc2c1 (stereo in doubt) [Example 160b] showed for Full length KDM2B (Homo sapiens (Human), UniProt Q8NHM5) is 6.95

GET /values?item= Cc1ccc(-c2ccc(C(=O)C3CCCN(CC4CC4)C3)cc2)cc1 (stereo not drawn) &system= Full length KDM2B (Homo sapiens (Human), UniProt Q8NHM5) returns pIC50: 6.40

Entry Cc1ccc2cc(C(=O)C3CCCN(CC4CC4)C3)ccc2n1 (stereo not drawn) : pIC50 on Full length KDM2B (Homo sapiens (Human), UniProt Q8NHM5) = 6.59

Per the reported Full length KDM2B (Homo sapiens (Human), UniProt Q8NHM5) data, COc1ccc2cc(C(=O)C3CN(C4CCC4)CCN3Cc3ccccc3)ccc2c1 (stereo not drawn) has pIC50 of 6.99
